- testMethodNotes: xn = mol fraction of the nth substance listed
- runParameters: 293.15 K; 101.33 kPa; x2 = 0.8
assayMetric: viscosity (mPa·s)

INPUT: What value of viscosity has been recorded for this entry: CCCCCCCCCCCC(=O)OCC + CCCO
OUTPUT: 2.307

INPUT: Any idea what viscosity was measured for CCCCCCCCCCCC(=O)OCC + CCCCCCO ?
OUTPUT: 3.852

INPUT: Which viscosity reading was recorded for the compound CCCCCCCCCCCC(=O)OCC + CCCCO ?
OUTPUT: 2.624

INPUT: Need viscosity of CCCCCCCCCCCC(=O)OCC + CCCCCO , thanks.
OUTPUT: 3.147

* * *

- runParameters: 313.15 K; 101 kPa
assayMetric: viscosity (mPa·s)

Field: example entries. Status: answers known.
INPUT: // viscosity lookup, key: "Clc1ccc(Cl)c(Cl)c1"
OUTPUT: 1.472

INPUT: State the recorded viscosity for this entry: CC1(C)OC1C#N (stereo not given)
OUTPUT: 0.938

INPUT: Data request, read-out viscosity, for "CCN(CC)c1ccccc1"
OUTPUT: 1.35

[1] CCCN(CCC)CCC
[2] CCOC(=O)CC(=O)OCC
INPUT: Larger number for viscosity: 1 , or 2 ? // caller expects the label of the chosen entry
OUTPUT: 2

* * *

- testMethodNotes: xn = mol fraction of the nth substance listed
- runParameters: 308.15 K; 101.33 kPa; x2 = 0.8
assayMetric: viscosity (mPa·s)

Sample answers from the record:
INPUT: Name the reported viscosity value associated with the compound CCCCCCCCCCCC(=O)OCC + CCCCO
OUTPUT: 1.868

INPUT: Looking for the measured viscosity of CCCCCCCCCCCC(=O)OCC + CCCCCO , can you help?
OUTPUT: 2.201

[a] CCCCCCCCCCCC(=O)OCC + CCCO
[b] CCCCCCCCCCCC(=O)OCC + CCCCCCO
INPUT: Which gives the smaller viscosity number: a or b ? Your answer should be the label of the entry you select.
OUTPUT: a
(a: 1.674 mPa·s, b: 2.621 mPa·s)

* * *

- testMethodNotes: xn = mol fraction of the nth substance listed
- runParameters: 313.15 K; 101.33 kPa; x2 = 0.8
assayMetric: viscosity (mPa·s)

Consider the worked cases shown below.
INPUT: Endpoint output: viscosity of CCCCCCCCCCCC(=O)OCC + CCCCCO . Value?
OUTPUT: 1.963

INPUT: Data request, read-out viscosity, for CCCCCCCCCCCC(=O)OCC + CCCCO
OUTPUT: 1.685

[A] CCCCCCCCCCCC(=O)OCC + CCCCCCO
[B] CCCCCCCCCCCC(=O)OCC + CCCO
INPUT: Sorting ascending by viscosity, which comes first: A or B ? State your choice using its label.
OUTPUT: B
(B: 1.513 mPa·s, A: 2.316 mPa·s)

* * *

- runParameters: 303.15 K; 101 kPa
assayMetric: viscosity (mPa·s)

Please review the entries below; each comes with its answer.
INPUT: I'd like to know its viscosity. The compound in question is "CCCCCCCCCCN"
OUTPUT: 1.766

INPUT: So what does the record say about viscosity for CC1(C)OC1C#N (stereo not given) ?
OUTPUT: 1.1

INPUT: Name the reported viscosity value associated with the compound "Clc1ccc(Cl)c(Cl)c1"
OUTPUT: 1.785

[1] CCCN(CCC)CCC
[2] CCOC(=O)CC(=O)OCC
INPUT: Response body: label of entry with the larger viscosity; valid values 1 , 2 . In your reply, give the label of the chosen option.
OUTPUT: 2

* * *

- testMethodNotes: xn = mol fraction of the nth substance listed
- runParameters: 308.15 K; 101.33 kPa; x2 = 0.7
assayMetric: viscosity (mPa·s)

INPUT: Quick one: viscosity of CCCCCCCCCCCC(=O)OCC + CCCCCCO ?
OUTPUT: 2.459

INPUT: Please give the measured viscosity for this compound: CCCCCCCCCCCC(=O)OCC + CCCCO
OUTPUT: 1.9

INPUT: Given the compound CCCCCCCCCCCC(=O)OCC + CCCCCO , what is its reported viscosity?
OUTPUT: 2.142

INPUT: What does the record list as viscosity for CCCCCCCCCCCC(=O)OCC + CCCO ?
OUTPUT: 1.756

* * *

- testMethodNotes: xn = mol fraction of the nth substance listed
- runParameters: 323.15 K; 101.33 kPa; x2 = 0.8
assayMetric: viscosity (mPa·s)

INPUT: I am curious: what viscosity value has been reported for CCCCCCCCCCCC(=O)OCC + CCCO ?
OUTPUT: 1.251

INPUT: Find the recorded viscosity belonging to CCCCCCCCCCCC(=O)OCC + CCCCCCO and report it.
OUTPUT: 1.848

INPUT: // viscosity lookup, key: CCCCCCCCCCCC(=O)OCC + CCCCO
OUTPUT: 1.374

INPUT: If you can, please state the reported viscosity value of CCCCCCCCCCCC(=O)OCC + CCCCCO .
OUTPUT: 1.584

* * *

- testMethodNotes: xn = mol fraction of the nth substance listed
- runParameters: 313.15 K; 101.33 kPa; x2 = 0.7
assayMetric: viscosity (mPa·s)

INPUT: Would you kindly share the measured viscosity for CCCCCCCCCCCC(=O)OCC + CCCCCO ?
OUTPUT: 1.919

INPUT: What viscosity value was documented for this molecule, CCCCCCCCCCCC(=O)OCC + CCCO ?
OUTPUT: 1.59

INPUT: For CCCCCCCCCCCC(=O)OCC + CCCCCCO , what is its reported viscosity?
OUTPUT: 2.186

INPUT: Which viscosity reading was recorded for the molecule CCCCCCCCCCCC(=O)OCC + CCCCO ?
OUTPUT: 1.709

* * *

- testMethodNotes: xn = mol fraction of the nth substance listed
- runParameters: 303.15 K; 101.33 kPa; x2 = 0.8
assayMetric: viscosity (mPa·s)

INPUT: Could you share which viscosity value was measured for CCCCCCCCCCCC(=O)OCC + CCCCCO ?
OUTPUT: 2.479

INPUT: Look up viscosity: CCCCCCCCCCCC(=O)OCC + CCCCO
OUTPUT: 2.092

[a] CCCCCCCCCCCC(=O)OCC + CCCCCCO
[b] CCCCCCCCCCCC(=O)OCC + CCCO
INPUT: Just curious, which one has the larger viscosity reading, a or b ? Use the label to indicate which entry you chose.
OUTPUT: a
(a: 2.979 mPa·s, b: 1.869 mPa·s)

* * *

- testMethodNotes: xn = mol fraction of the nth substance listed
- runParameters: 318.15 K; 101.33 kPa; x2 = 0.7
assayMetric: viscosity (mPa·s)

INPUT: Given the entry CCCCCCCCCCCC(=O)OCC + CCCO , report its measured viscosity.
OUTPUT: 1.454

INPUT: So what does the record say about viscosity for CCCCCCCCCCCC(=O)OCC + CCCCCO ?
OUTPUT: 1.735

INPUT: # query: viscosity of entry CCCCCCCCCCCC(=O)OCC + CCCCCCO
OUTPUT: 1.965

INPUT: Query (compound): CCCCCCCCCCCC(=O)OCC + CCCCO ; field requested: viscosity
OUTPUT: 1.563

* * *

- testMethodNotes: xn = mol fraction of the nth substance listed
- runParameters: 298.15 K; 101.33 kPa; x2 = 0.8
assayMetric: viscosity (mPa·s)

INPUT: Fill blank: measured viscosity of the compound CCCCCCCCCCCC(=O)OCC + CCCCCO is ____.
OUTPUT: 2.783

[a] CCCCCCCCCCCC(=O)OCC + CCCCO
[b] CCCCCCCCCCCC(=O)OCC + CCCCCCO
INPUT: API: POST /compare with a and b ; response names the item with higher viscosity. # answer = label of selected item
OUTPUT: b
(b: 3.366 mPa·s, a: 2.342 mPa·s)

* * *

- testMethodNotes: xn = mol fraction of the nth substance listed
- runParameters: 293.15 K; 101.33 kPa; x2 = 0.7
assayMetric: viscosity (mPa·s)

INPUT: Report viscosity for CCCCCCCCCCCC(=O)OCC + CCCCCO please.
OUTPUT: 3.044

[a] CCCCCCCCCCCC(=O)OCC + CCCO
[b] CCCCCCCCCCCC(=O)OCC + CCCCCCO
INPUT: // which entry reports the smaller viscosity, a or b ? To answer, give the label that identifies your chosen option.
OUTPUT: a

* * *

- testMethodNotes: xn = mol fraction of the nth substance listed
- runParameters: 298.15 K; 101.33 kPa; x2 = 0.7
assayMetric: viscosity (mPa·s)

INPUT: Quick one: viscosity of CCCCCCCCCCCC(=O)OCC + CCCO ?
OUTPUT: 2.175

INPUT: Report viscosity for CCCCCCCCCCCC(=O)OCC + CCCCO please.
OUTPUT: 2.363

INPUT: Quick check: viscosity of CCCCCCCCCCCC(=O)OCC + CCCCCCO ?
OUTPUT: 3.101

INPUT: Which value of viscosity has been reported for CCCCCCCCCCCC(=O)OCC + CCCCCO in the records?
OUTPUT: 2.706
